# system tested: T1, human UPK1B (hUPK1B) protein, full length, on the cell surface (human, UniProt O75841 1-260)
# T1 sequence: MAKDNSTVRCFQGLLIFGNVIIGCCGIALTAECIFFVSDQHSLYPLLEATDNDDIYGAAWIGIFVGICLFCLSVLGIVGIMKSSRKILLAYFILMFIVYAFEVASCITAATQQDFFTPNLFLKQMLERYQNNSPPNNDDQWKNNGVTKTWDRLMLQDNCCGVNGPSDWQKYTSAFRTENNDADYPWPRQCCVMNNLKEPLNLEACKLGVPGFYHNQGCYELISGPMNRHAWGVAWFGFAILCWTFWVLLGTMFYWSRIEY
# test method notes: cell-based or functional assay
Consider the following binders; for each one, report its IVK, HxUPK1B, 250pM, fz, % live [cont.].
One number for each entry, in % live.

binder	IVK, HxUPK1B, 250pM, fz, % live [cont.] (% live)
SC115.32 (antibody, IgG1, V domains shown) VH: QVQLQQPGAELVRPGSSVKLSCKASGYTFNSYWMHWVKQRPIKGLEWIGNIDPSDGETYYNQAFKDKATLTVDKSSSTAYMQLSRLTSEDSAVYYCARRGTAQATTWLGYWGQGTLVTVSA VL: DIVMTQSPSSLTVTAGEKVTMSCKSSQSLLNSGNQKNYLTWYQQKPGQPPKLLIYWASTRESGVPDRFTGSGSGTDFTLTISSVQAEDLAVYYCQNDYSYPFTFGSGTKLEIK	28.2
SC115.84 (antibody, IgG2b, V domains shown) VH: QVQLQQSGAELVKPGASVKISCETSGYTFSSYWMNWVKQRPGKGLEWIGQIDPGDGDTNYNGKFRGKATLTADKSSSTAYMQLNTLTSEDSAVYFCARSRQLRLDYWGQGTTLTVSS VL: QIVLTQSPAIMSASPGERVTMTCSASSSVSSFYLYWYQQKSGSSPKVWIYSTSNLASGVPTRFSGSGSGTSYSLTINSMEAEDAATYYCQQWSSNPLTFGAGTKLELK	25.6

Now for the binder whose IVK, HxUPK1B, 250pM, fz, % live [cont.] we want.
What value of measured IVK, HxUPK1B, 250pM, fz, % live [cont.] is listed for SC115.36 (antibody, IgG1, V domains shown) VH: EVQLQQSGTVVARPGASVKMSCKASGYSFTSYWMHWIKQRPGQGLDWIGSIYPGHSDATYNQRFKGKAKLTAVTSANTAYMELSSLTNEDSAVYYCSRSDGYYRGMAMDYWGQGTSVTVSS VL: DIVLTQSPASLAVSLGQRATISCRASESVDGYGNSFMHWYRQKPGQPPKLLIYRASNLESGIPARFSGSGSRTDFALTINPVEADDVATYYCQQSYGDPRTFGGGTNLEIK ? 17.2
